Bridge positions count the residues as written; N and C are the ends. Square brackets hold non-standard residues; d marks the D form. Peptide text beside a SMILES is read from it. ξ: configuration not given here. dPhe(4-NO2) = N[C@H](Cc1ccc([N+](=O)[O-])cc1)C(=O)O; d2Nal = N[C@H](Cc1ccc2ccccc2c1)C(=O)O; Thr(3ξ) = CC(O)[C@H](N)C(=O)O
Read-out record for somatostatin receptors sub-type 2 (Homo sapiens): Ki
Measurement name: Ki

INSERT INTO assay_data (compound, value_observed) VALUES
  ('CC(C)[C@@H]1NC(=O)[C@H](CCCCN)NC(=O)[C@@H](Cc2ccc([N+](=O)[O-])cc2)NC(=O)[C@H](Cc2ccc(O)cc2)NC(=O)[C@@H](NC(=O)[C@H](N)Cc2ccc3ccccc3c2)CSSC[C@@H](C(=O)N[C@H](C(N)=O)C(C)O)NC1=O (some centres unmarked) [Example 20] (H-[d2Nal]CY[dPhe(4-NO2)]KVC[Thr(3ξ)]-NH2; disulfide 2-7)', '≤ 5 nM'),
  ('CC(C)[C@@H]1NC(=O)[C@H](CCCCN)NC(=O)[C@@H](Cc2c[nH]cn2)NC(=O)[C@H](Cc2ccc(O)cc2)NC(=O)[C@@H](NC(=O)[C@H](N)Cc2ccc3ccccc3c2)CSSC[C@@H](C(=O)N[C@H](C(N)=O)C(C)O)NC1=O (some centres unmarked) [Example 3] (H-[d2Nal]CY[dH]KVC[Thr(3ξ)]-NH2; disulfide 2-7)', '≤ 700 nM');

Data origin, for the record: patent US9382306B2
